Hey, just so you know, these numbers are from the RNAGym collection of RNA variant scans (doi:10.7554/elife.90254).

B1: LINE1-mini (parent)
chain: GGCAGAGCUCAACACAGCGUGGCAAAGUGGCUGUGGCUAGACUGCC

- Variants of: B1
- experiment-notes: self-cleavage, relative activity (ratio to wild type); higher = more cleavage; in vitro, sequencing; the parent is a self-cleaving ribozyme
endpoint-name: self-cleavage
Numbers only.

>>> value_reported("C3A C10A")
0.07
>>> value_reported("A16U C45A")
0.1
>>> value_reported("U9A G30U")
0.08

Give self-cleavage for all variants that follow.
1. G27A C37A
2. G22A G33U
3. U20C C37A
4. C42A C45G
5. G1U U32G
6. G2U C15U

Output line:
1: 0.05; 2: 0.22; 3: 0.04; 4: 0.21; 5: 0.05; 6: 0.05

Give self-cleavage for all variants that follow.
1. C13A G17A
2. G30U U38C
3. G7A U32G
4. C3A G40U

Output line:
[0.1, 1.12, 0.11, 0.21]
